Test system: LOLRI
Test: Pre-emergence herbicidal action against LOLRI (Table 8, titled post-emergence at 320 g/ha)
Type: in vivo, Lolium rigidum
Settings: table stands in the pre-emergence section
Below, each of the compounds is paired with its reported Pre-emergence herbicidal action against LOLRI in % value.
measured-attribute: Pre-emergence herbicidal action against LOLRI in % (%)

[[record]]
compound = "CC#Cc1cc(C)c(C2=C(OC(=O)OCC)C3(CCC(COCCC)C3)NC2=O)c(OC)c1 (centres unmarked) [Example P-83]"
unit_abbrev = "%"
number = 100

[[record]]
compound = "C=CCOCC1CCC2(C1)NC(=O)C(c1c(C)cc(C#CC)cc1Br)=C2O (centres unmarked) [Example I-70]"
unit_abbrev = "%"
number = 100

[[record]]
compound = "C=CCOCC1CCC2(C1)NC(=O)C(c1c(C)cc(C#CC)cc1Br)=C2O (centres unmarked) [Example I-67]"
unit_abbrev = "%"
number = 100

[[record]]
compound = "CC#Cc1cc(Br)c(C2=C(O)C3(CCC(COCC)C3)NC2=O)c(OC)c1 (centres unmarked)"
unit_abbrev = "%"
number = 100

[[record]]
compound = "CC#Cc1cc(Br)c(C2=C(O)C3(CCC(COC)C3)NC2=O)c(OCC)c1 (centres unmarked) [Example I-69]"
unit_abbrev = "%"
number = 100

[[record]]
compound = "CC#Cc1cc(Br)c(C2=C(OC(=O)C(C)C)C3(CCC(COC)C3)NC2=O)c(OC)c1 (centres unmarked)"
unit_abbrev = "%"
number = 100

[[record]]
compound = "CC#Cc1cc(F)c(C2=C(OC(=O)OCC)C3(CCC(COCC)C3)NC2=O)c(OC)c1 (centres unmarked) [Example P-69]"
unit_abbrev = "%"
number = 100

[[record]]
compound = "CC#Cc1cc(C)c(C2=C(OC(=O)OCC)C3(CCC(COC)C3)NC2=O)c(Br)c1 (centres unmarked) [Example P-30]"
unit_abbrev = "%"
number = 100

